Target: angiotensin-I-converting enzyme (ACE) (Oryctolagus cuniculus, UniProt P12822)
Construct: Rabbit lungs ACE (0.1 U) was obtained from Sigma-Aldrich (St. Louis, MO, USA); purchased Sigma-Aldrich (St. Louis, MO, USA); host or cells: rabbit lung (tissue-derived)
Sequence (P12822 34-1310): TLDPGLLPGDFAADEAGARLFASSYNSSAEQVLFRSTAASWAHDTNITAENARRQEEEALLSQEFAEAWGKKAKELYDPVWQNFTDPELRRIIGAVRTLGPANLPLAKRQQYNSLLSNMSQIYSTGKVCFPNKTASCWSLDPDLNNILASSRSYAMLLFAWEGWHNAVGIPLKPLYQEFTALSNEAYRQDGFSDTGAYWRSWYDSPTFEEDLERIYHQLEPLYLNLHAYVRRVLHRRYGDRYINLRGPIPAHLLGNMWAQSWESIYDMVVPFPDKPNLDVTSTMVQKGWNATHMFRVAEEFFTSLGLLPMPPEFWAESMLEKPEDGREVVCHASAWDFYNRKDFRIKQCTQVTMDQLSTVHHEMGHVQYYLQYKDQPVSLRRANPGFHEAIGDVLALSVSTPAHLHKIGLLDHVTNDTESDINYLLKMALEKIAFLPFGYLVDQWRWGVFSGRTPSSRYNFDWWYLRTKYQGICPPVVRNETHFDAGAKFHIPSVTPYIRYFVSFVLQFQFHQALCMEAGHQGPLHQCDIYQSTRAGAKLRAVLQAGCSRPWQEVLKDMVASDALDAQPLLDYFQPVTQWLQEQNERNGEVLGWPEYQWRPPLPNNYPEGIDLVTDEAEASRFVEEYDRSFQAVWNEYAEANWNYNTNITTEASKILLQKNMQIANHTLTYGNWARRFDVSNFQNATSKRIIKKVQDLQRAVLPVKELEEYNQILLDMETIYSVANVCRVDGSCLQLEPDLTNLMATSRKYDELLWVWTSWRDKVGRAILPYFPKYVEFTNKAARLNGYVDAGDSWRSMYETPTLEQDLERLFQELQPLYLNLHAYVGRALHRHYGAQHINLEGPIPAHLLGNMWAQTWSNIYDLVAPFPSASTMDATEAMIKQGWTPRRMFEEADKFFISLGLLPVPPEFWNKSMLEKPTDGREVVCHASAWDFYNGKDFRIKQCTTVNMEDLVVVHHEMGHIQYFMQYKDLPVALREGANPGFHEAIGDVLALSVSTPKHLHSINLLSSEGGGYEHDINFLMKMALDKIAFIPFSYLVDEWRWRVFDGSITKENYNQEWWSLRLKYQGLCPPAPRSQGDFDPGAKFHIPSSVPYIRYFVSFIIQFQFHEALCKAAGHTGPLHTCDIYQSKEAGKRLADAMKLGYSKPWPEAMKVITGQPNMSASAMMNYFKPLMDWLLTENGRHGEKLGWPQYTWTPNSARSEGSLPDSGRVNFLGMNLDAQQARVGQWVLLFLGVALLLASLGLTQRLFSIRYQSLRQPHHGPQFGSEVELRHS
Assay: ACE restraining capacity, hippuric acid method
Type: biochemical, Rabbit
Settings: substrate HHL, absorbance 228 nm, IC50 from regression of inhibition against concentration, tests in triplicate, read-out: ACE-inhibitory activity (IC50)
pIC50: −log10 of the molar value. Ends that are not written are not given here.
PROPERTY MEASURED: pIC50

[
  {
    "SUBSTANCE": "PVDFAGFY-ferrous chelate: ferrous chelate of PVDFAGFY prepared with ferrous chloride (also: ferrous chelate)",
    "TARGET UNDER TEST": "angiotensin-I-converting enzyme (ACE) (Oryctolagus cuniculus, UniProt P12822)",
    "NUMBER": 3.99
  }
]

Source: paper PMC12005989
